Assay: Pharmacokinetic study after oral administration
Format: in vivo, Wistar albino rats
Conditions: Wistar albino, rat, plasma; rats, oral 20 mg/kg, n = 6
quantity measured: AUC(0-inf) (µg·h/mL)

(A) CC(=O)Oc1ccccc1C(=O)Nc1ncc([N+](=O)[O-])s1 [NTZ, nitazoxanide, reference compound]
(B) CC1=CC(=O)C(C(C)C)=CC1=O [THQ, 2-isopropyl-5-methyl-1,4-benzoquinone]
[Q] # query: argmin of AUC(0-inf) over A and B Answer = label.
[A] B
(B: 630 µg·h/mL, A: 1470 µg·h/mL)

====

Assay: Pharmacokinetic study after oral administration
Assay type: in vivo, Wistar albino rats
Details: Wistar albino, rat, plasma; rats, oral 20 mg/kg, n = 6; read-out: T1/₂ (converted)
Procedure: All groups received an oral dose of 20 mg/kg of their respective formulations. Blood samples (500 μL) were collected from the ocular vein into heparinized tubes at intervals of 0.5, 1, 2, 4, 6, 8, 12, and 24 hours post-administration. The samples were centrifuged at 10,000 rpm for 5 min to isolate plasma stored at −20°C. Plasma samples were deproteinized by adding 1 mL of acetonitrile to each sample, followed by vortexing for 10 min and centrifugation at 6,000 rpm for another 10 min. […]
quantity measured: half-life (h)

(I) CC1=CC(=O)C(C(C)C)=CC1=O
(II) CC(=O)Oc1ccccc1C(=O)Nc1ncc([N+](=O)[O-])s1 [NTZ, nitazoxanide, reference compound]
[Q] # query: argmin of half-life over I and II Answer = label.
[A] II

====

Experiment: Pharmacokinetic study after oral administration
Format: in vivo, Wistar albino rats
Details: Wistar albino, rat, plasma; rats, oral 20 mg/kg, n = 6; read-out: AUC₀ → 24
quantity measured: AUC(0-t) (µg·h/mL)

(A) CC1=CC(=O)C(C(C)C)=CC1=O [THQ, 2-isopropyl-5-methyl-1,4-benzoquinone]
(B) CC(=O)Oc1ccccc1C(=O)Nc1ncc([N+](=O)[O-])s1 [NTZ, nitazoxanide, reference compound]
[Q] # query: argmin of AUC(0-t) over A and B Answer = label.
[A] A
